These data points were gathered from patent US8193377B2.

# Target system: purified rabbit 20s proteasome (Oryctolagus cuniculus)
# Construct: purchased Boston Biochem (Cambridge, Mass.)
# Sequence (G1T4Q9 1-263): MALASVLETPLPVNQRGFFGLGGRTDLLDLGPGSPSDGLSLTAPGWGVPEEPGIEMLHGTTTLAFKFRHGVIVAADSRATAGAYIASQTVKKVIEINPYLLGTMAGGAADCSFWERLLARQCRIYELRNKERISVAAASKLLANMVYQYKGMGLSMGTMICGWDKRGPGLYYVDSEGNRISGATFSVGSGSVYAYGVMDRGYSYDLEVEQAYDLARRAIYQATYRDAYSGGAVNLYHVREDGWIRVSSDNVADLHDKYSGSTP
# Experiment notes: Inhibition of chymotrypsin-like activity of purified 20S proteasome
# Format: biochemical
# Measurement parameters: Suc-Leu-Leu-Val-Tyr-AMC, 2 h incubation, Table 1; read-out: IC50 (μM), unprotected
Recorded metric: IC50
Note: state the figure and append the unit.

Use these answered entries as a reference point.
{"Compound": "O=C(O[C@@H]1Cc2c(O)cc(O)cc2O[C@@H]1c1ccc(O)cc1)c1cc(O)c(O)c(O)c1 [Compound 6]", "Target system": "purified rabbit 20s proteasome (Oryctolagus cuniculus)", "IC50": "2.69 µM"}
{"Compound": "O=C(O[C@H]1Cc2c(O)cc(O)cc2O[C@@H]1c1ccc(O)c(O)c1)c1ccc(O)cc1 [Compound 11]", "Target system": "purified rabbit 20s proteasome (Oryctolagus cuniculus)", "IC50": "7.7 µM"}

For the next question, use this compound.
Fill blank: measured IC50 of the compound O=C(O[C@@H]1Cc2c(O)cc(O)cc2O[C@@H]1c1cc(O)c(O)c(O)c1)c1cc(O)c(O)c(O)c1 [(−)-EGCG, (−)-epigallocatechin-3-gallate, reference compound] is ____. 0.3 µM
